Tested on: wild-type laboratory strain HIV-1HXB2
Experiment: Recombinant HIV-1 Antiviral Assay (MTT cell viability assay with MT-4 cells)
Format: cell-based
Settings: Human immunodeficiency virus 1, MT4, 120 h, read-out: Antiviral Activity IC50(μM)
measured-quantity: IC50 (µM)
Please give a number only; it is taken to be in µM.

Exam item: Specify IC50 for Cc1cc(C#N)cc(C)c1Oc1nc(NC2CCN(Cc3ccc(S(N)(=O)=O)cc3Cl)CC2)nc(N)c1Br and stop.
Marked response: 0.0086

----------
Give IC50 for every item shown.
Target: HIV-1 reverse transcriptase (HIV-RT enzyme) (Human immunodeficiency virus type 1 group M subtype B, UniProt P03366)
Assay: HIV-1 Reverse Transcriptase Assay Inhibitor IC50 Determination (RNA-dependent DNA polymerase activity, SPA)
Type: biochemical
Conditions: SPA polymerase assay, 30 min at 30°; read-out: HIVRT inhibition IC50
Please give a number only; it is taken to be in nM.

Exam item: Specify IC50 for Cc1cc(C#N)cc(C)c1Oc1ccnc(NC2CCN(c3cc(Cl)cc(C#N)c3)CC2)n1 [IV-23] and stop.
Marked response: 37.7

Exam item: Specify IC50 for Cc1cc(C#N)cc(C)c1Nc1nc(NC2CCN(c3cccc(C#N)c3)CC2)ncc1Br [V-3] and stop.
Marked response: 40

Exam item: Specify IC50 for Cc1cc(C#N)cc(C)c1Oc1nc(NC2CCN(Cc3ccc(S(N)(=O)=O)cc3Cl)CC2)nc(N)c1Br [II-1] and stop.
Marked response: 105
